Experiment: Pharmacokinetic study in rats, single oral dose
Type: in vivo, Sprague-Dawley rats
Conditions: both sexes, Sprague-Dawley, plasma; rat, single oral dose 50 mg/kg
measured endpoint: CL/F
Please give the number followed by its unit.

For record CN(C)C(=O)/C=C/C(=O)c1ccc(-c2ccncc2)cc1.Cl the listed CL/F is 613 mL/min/kg

###

Test: Pharmacokinetic study in rats, single oral dose
Format: in vivo, Sprague-Dawley rats
Conditions: both sexes, Sprague-Dawley, plasma; rat, single oral dose 50 mg/kg; read-out: AUC0-60
measured endpoint: AUC(0-t) (µg·h/mL)
Give bare numbers, in µg·h/mL.

Recorded result, CN(C)C(=O)/C=C/C(=O)c1ccc(-c2ccncc2)cc1.Cl , AUC(0-t): 1.4
